The compounds listed here are annotated with their CC50 at 72 h.
assay: Cytotoxicity against human HepG2 cells assessed as reduction in cell viability measured after 72 hrs by neutral red uptake assay; format: cell-based
Reply with just the number (in µM).

Smiles record: COc1ccc2nc(C)cc(OCc3ccc(C(C)C)cc3)c2c1
Unit: µM
CC50 at 72 h: 13

Please find the next compound below.
Lookup: Report CC50 at 72 h for COc1ccc2nc(C)cc(OCc3ccc(Cl)c(Cl)c3)c2c1 please.
Found: 14.9

* * *

system: Mycobacterium tuberculosis H37Rv; assay: Inhibition of Mycobacterium tuberculosis H37Rv ATCC 27294 QcrB assessed as reduction in bacterial growth by resazurin reduction microplate assay
Readout: MIC (µM)
Reply with just the number (in µM).

Worked cases, MIC given:
Compound: COc1ccc2nc(C)cc(OCc3ccc(C(C)(C)C)cc3)c2c1
MIC (µM): 3.7
--
Compound: COc1ccc2nc(C)cc(OCc3ccc4ccccc4c3)c2c1
MIC (µM): 7.6
--
Compound: COc1ccc2nc(C)cc(OCC(=O)c3cccc(Cl)c3)c2c1
MIC (µM): 1.8
--
Compound: COc1cccc(COc2cc(C)nc3ccc(OC)cc23)c1
MIC (µM): 32.3

Lookup: Report MIC for COc1ccc2nc(C)cc(OCc3cccc(C(F)(F)F)c3)c2c1 please.
Found: 7.2

Lookup: Entry COc1ccc2nc(C)cc(OCc3ccc(F)c(F)c3)c2c1 please
Found: 3.9

Lookup: Entry COc1ccc2nc(C)cc(OC(C)C(=O)c3ccccc3)c2c1 (stereo not drawn) please
Found: 31.1

Lookup: Entry COc1ccc2nc(C)cc(OCC(=O)c3ccc(Br)cc3)c2c1 please
Found: 14.6

Lookup: Entry COc1ccc2nc(C)cc(OCc3cccc(Cl)c3)c2c1 please
Found: 7.9

Lookup: Entry COc1ccc2nc(C)cc(OCc3ccc(Cl)c(Cl)c3)c2c1 please
Found: 0.3

Lookup: Entry COc1ccc2nc(C)cc(OCC(=O)c3ccc(F)cc3)c2c1 please
Found: 30.7

Lookup: Entry COc1ccc2nc(C)cc(OCc3cccc(F)c3)c2c1 please
Found: 16.8

Lookup: Entry COc1ccc2nc(C)cc(OCCc3ccccc3)c2c1 please
Found: 34.1

Lookup: Entry COc1cccc(C(=O)COc2cc(C)nc3ccc(OC)cc23)c1 please
Found: 14.8

Lookup: Entry COc1ccc2nc(C)cc(OCc3ccc(Cl)cc3)c2c1 please
Found: 15.9

Lookup: Entry CO[C@H]1/C=C/O[C@@]2(C)Oc3c(C)c(O)c4c(O)c(c(/C=N/N5CCN(C)CC5)c(O)c4c3C2=O)NC(=O)/C(C)=C\C=C\[C@H](C)[C@H](O)[C@@H](C)[C@@H](O)[C@@H](C)[C@H](OC(C)=O)[C@@H]1C please
Found: 0.05

Lookup: Entry COc1ccc2nc(C)cc(OCC(=O)c3ccc(Cl)cc3)c2c1 please
Found: 12.9

* * *

test system: Mycobacterium tuberculosis H37Rv; experiment: Inhibition of Mycobacterium tuberculosis H37Rv ATCC 27294 QcrB assessed as reduction in bacterial growth by resazurin reduction microplate assay
The compounds listed here are annotated with their MIC.
Reply with just the number (in µM).

Worked cases, MIC given:
Smiles record: COc1ccc2nc(C)cc(OCc3ccc(C(C)C)cc3)c2c1
Unit: µM
Recorded measurement: 1.9

Smiles record: COc1ccc2nc(C)cc(OCc3ccccc3F)c2c1
Unit: µM
Recorded measurement: 19.2

Please find the next compound below.
Lookup: Report MIC for COc1ccc2nc(C)cc(OCC(=O)c3ccc(-c4ccccc4)cc3)c2c1 please.
Found: 13

Where do these numbers come from? They come from ChEMBL document CHEMBL4680209.
